Entry source: paper doi:10.1101/2021.12.01.470705

Assayed system: T1, WWOX WW1 domain (amino acid 16-50) (human, UniProt Q9NZC7 16-50)
T1 chain (looked up): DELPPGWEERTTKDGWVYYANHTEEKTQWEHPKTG
Method: ITC
Experimental endpoint: Kd (µM)

Binder: KPGTVLPPPPYRHRN (peptide, UniProt Q15303 1291-1305, looked up) [ErbB4 1291-1305 (PY3) single-motif peptide]
Experimental endpoint: Kd
Value measured: 78
